molecular target: human GGTase (Homo sapiens, UniProt P53609); assay: Human GGTase inhibition (Hu GG); format: biochemical; conditions: Table 1; read-out: IC50 (nM) Hu GG
Peptide text beside a SMILES is read from it.
IC50 values, listed per item

These recorded examples may help you get a feel for the data.
molecule CC(C)C[C@H](NC(=O)[C@H](Cc1cccc2ccccc12)NC(=O)[C@H](CC(=O)O)NC(=O)[C@@H](N)CS)C(=O)O [Compound 5d] (HELM PEPTIDE1{C.D.[O=C([C@H](Cc1cccc2ccccc12)N[*:1])[*:2]].L}$$$$V2.0) , IC50 observed: > 1000 nM

The molecule listed as CC(C)C[C@H](NC(=O)[C@H](Cc1cccc2ccccc12)NC(=O)C[C@@H](NC(=O)[C@@H](N)CS)C(N)=O)C(=O)O [Compound 5h] (HELM PEPTIDE1{[O=C([C@H](Cc1cccc2ccccc12)N[*:1])[*:2]].L}|PEPTIDE2{C.[dD].[am]}$PEPTIDE1,PEPTIDE2,1:R1-2:R3$$$V2.0) shows IC50 equal to < 500 nM

Record summary for NC[C@H](NC(=O)[C@@H](N)CS)C(=O)N1CCN(C(c2ccc(F)cc2)c2ccc(F)cc2)CC1 [Compound 89g] : reported IC50 = > 1000 nM

IC50 in this record for NC[C@H](NC(=O)[C@@H](N)CS)C(=O)NCc1cccc(-c2ccccc2)c1 [Compound 89b] : > 1000 nM

IC50 in this record for NC[C@H](NC(=O)[C@@H](N)CS)C(=O)N1CCC(Cc2ccccc2)CC1 [Compound 89f] : > 1000 nM

// IC50 lookup, molecule = NC[C@H](NC(=O)[C@@H](N)CS)C(=O)NCc1ccc2c(c1)OCO2 [Compound 89d] , result: > 1000 nM

IC50 in this record for CC(C)C[C@H](NC(=O)[C@H](Cc1cccc2ccccc12)NC(=O)[C@H](CCO)NC(=O)[C@@H](N)CS)C(=O)O [Compound 5a] (HELM PEPTIDE1{C.[O=C([C@H](CCO)N[*:1])[*:2]].[O=C([C@H](Cc1cccc2ccccc12)N[*:1])[*:2]].L}$$$$V2.0) : < 500 nM

CC(C)C[C@H](NC(=O)[C@H](Cc1cccc2ccccc12)NC(=O)[C@H](CN)NC(=O)[C@@H](N)CS)C(=O)O [Compound 5b] (HELM PEPTIDE1{C.[NC[C@H](N[*:1])C(=O)[*:2]].[O=C([C@H](Cc1cccc2ccccc12)N[*:1])[*:2]].L}$$$$V2.0) has a reported IC50 of < 500 nM

Summary for this molecule, CC(C)C[C@H](NC(=O)[C@H](Cc1cccc2ccccc12)NC(=O)CNC(=O)[C@@H](N)CS)C(=O)O [Compound 5i] (HELM PEPTIDE1{C.G.[O=C([C@H](Cc1cccc2ccccc12)N[*:1])[*:2]].L}$$$$V2.0) : IC50 is < 500 nM

Reported IC50 for NC[C@H](NC(=O)[C@@H](N)CS)C(=O)N1CCC(C(=O)NCc2ccncc2)(c2ccccc2)CC1 [Compound 89c] was > 1000 nM

Next:
IC50 measured on CC(C)C[C@H](NC(=O)[C@H](Cc1cccc2ccccc12)NC(=O)CCNC(=O)[C@@H](N)CS)C(=O)O [Compound 5g] (HELM PEPTIDE1{C.[bAla].[O=C([C@H](Cc1cccc2ccccc12)N[*:1])[*:2]].L}$$$$V2.0) = < 500 nM

# molecule CC(C)C[C@H](NC(=O)[C@H](Cc1cccc2ccccc12)NC(=O)[C@@H](N)CNC(=O)[C@@H](N)CS)C(=O)O [Compound 5c] (HELM PEPTIDE1{[N[C@@H](CN[*:3])C(=O)[*:2]].[O=C([C@H](Cc1cccc2ccccc12)N[*:1])[*:2]].L}|PEPTIDE2{C}$PEPTIDE1,PEPTIDE2,1:R3-1:R2$$$V2.0) ; its IC50 = > 1000 nM

###

Form field: IC50 (one value per entry).
target: human GGTase (Homo sapiens); test: Human GGTase inhibition (Hu GG); format: biochemical; conditions: Table 5; read-out: IC50 (nM) Human

# IC50 of CC(C)C[C@H](NC(=O)C1(c2ccccc2)CCN(C(=O)[C@@H](N)CS)CC1)C(=O)N[C@@H](C)C(=O)O [Compound 99a] = > 500 nM

###

The compounds listed here are annotated with their IC50.
Target: C. albicans GGPTase (Candida albicans, UniProt Q8J224+Q9Y764)
Sequence (Q9Y764 1-398): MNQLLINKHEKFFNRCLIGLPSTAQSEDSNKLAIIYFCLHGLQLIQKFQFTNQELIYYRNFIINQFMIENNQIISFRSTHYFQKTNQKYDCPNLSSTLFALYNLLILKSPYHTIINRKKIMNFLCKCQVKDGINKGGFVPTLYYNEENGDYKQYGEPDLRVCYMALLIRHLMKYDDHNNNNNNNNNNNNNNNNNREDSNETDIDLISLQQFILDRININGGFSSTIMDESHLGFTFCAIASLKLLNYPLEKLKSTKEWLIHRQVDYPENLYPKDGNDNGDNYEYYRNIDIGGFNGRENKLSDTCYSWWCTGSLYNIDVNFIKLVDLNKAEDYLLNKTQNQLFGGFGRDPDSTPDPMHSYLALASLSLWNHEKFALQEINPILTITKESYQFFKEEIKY
Sequence (Q8J224 1-306): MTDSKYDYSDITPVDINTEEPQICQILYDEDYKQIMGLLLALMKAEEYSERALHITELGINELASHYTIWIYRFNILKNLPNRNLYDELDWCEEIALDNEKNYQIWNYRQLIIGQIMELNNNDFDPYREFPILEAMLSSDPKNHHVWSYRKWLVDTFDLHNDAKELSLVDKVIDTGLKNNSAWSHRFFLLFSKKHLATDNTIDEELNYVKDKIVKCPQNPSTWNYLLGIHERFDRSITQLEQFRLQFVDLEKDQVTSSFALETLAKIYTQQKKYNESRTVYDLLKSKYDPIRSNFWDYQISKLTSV
Experiment: biochemical
Conditions: Table 3 Piperidine Analogs; read-out: IC50 (nM) Ca GG
Procedure: Plate test compounds (10 μL per well) at predetermined concentration in 50% DMSO. For background control (blank) and reaction control (negative), add 10 μL of 200 μM GGPP and 10 μL 50% DMSO, respectively. Prepare assay buffer: 50 mM Tris, pH7.5, 20 mM KCL, 5 mM MgCl2, 5 μM ZnCl2, 0.5 mM Zw(3-14), 2 mM DTT and 0.1 mg/mL BSA. Add 20 μL of C. albicans GGPTase and ^3H-GGPP in assay buffer to test compound. […] Add 100 μL 15 mM GGPP, 50 mM Tris, pH7.0 and 2% BSA to quench reaction. […] Read in TOPCOUNT.
Peptide text beside a SMILES is read from it.

Look over these answered cases.
Entry under test: N[C@@H](CS)C(=O)N1CCC(C(=O)NCc2ccccc2-c2ccccc2)(c2ccccc2)CC1 [Compound 53b] . Its IC50 was < 100 nM

Looking up N[C@@H](CS)C(=O)N1CCC(C(=O)NCc2cccc(OC(F)(F)F)c2)(c2ccccc2)CC1 [Compound 53p] , I found its IC50 recorded as < 100 nM

Reported IC50 ( N[C@@H](CS)C(=O)N1CCC(C(=O)NCc2cccc(-c3ccccc3)c2)(c2ccccc2)CC1 [Compound 53e] ) = < 100 nM

Lab book: IC50 of N[C@@H](CS)C(=O)N1CCC(C(=O)NCc2ccc(F)cc2F)(c2ccccc2)CC1 [Compound 53r] noted as < 100 nM

Reported IC50 of N[C@@H](CS)C(=O)N1CCC(C(=O)NCCCn2ccnc2)(c2ccccc2)CC1 [Compound 53j] : < 100 nM

Next:
Query N[C@@H](CS)C(=O)N1CCC(C(=O)N[C@@H]2C[C@H]2c2ccccc2)(c2ccccc2)CC1 (relative stereo) [Compound 53v] yields IC50 of < 10 nM

Memo: N[C@@H](CS)C(=O)N1CCC(C(=O)NCCCN2CCOCC2)(c2ccccc2)CC1 [Compound 53f] , reported IC50: < 500 nM

Memo: N[C@@H](CS)C(=O)N1CCC(C(=O)NCc2cccc3ccccc23)(c2ccccc2)CC1 [Compound 53w] , reported IC50: < 100 nM

Given item CC(C)C[C@H](NC(=O)C1(c2ccccc2)CCN(C(=O)[C@@H](N)CS)CC1)C(=O)N[C@@H](C)C(=O)N[C@@H](C)C(=O)O [Compound 99b] (HELM PEPTIDE1{C.[O=C(C1(c2ccccc2)CCN([*:1])CC1)[*:2]].L.A.A}$$$$V2.0) , the value recorded as its IC50 is < 200 nM

###

In this section we review reported pIC50 values for a set of compounds.
Biological target: C. albicans GGPTase (Candida albicans, UniProt Q8J224+Q9Y764)
Sequence (Q9Y764 1-398): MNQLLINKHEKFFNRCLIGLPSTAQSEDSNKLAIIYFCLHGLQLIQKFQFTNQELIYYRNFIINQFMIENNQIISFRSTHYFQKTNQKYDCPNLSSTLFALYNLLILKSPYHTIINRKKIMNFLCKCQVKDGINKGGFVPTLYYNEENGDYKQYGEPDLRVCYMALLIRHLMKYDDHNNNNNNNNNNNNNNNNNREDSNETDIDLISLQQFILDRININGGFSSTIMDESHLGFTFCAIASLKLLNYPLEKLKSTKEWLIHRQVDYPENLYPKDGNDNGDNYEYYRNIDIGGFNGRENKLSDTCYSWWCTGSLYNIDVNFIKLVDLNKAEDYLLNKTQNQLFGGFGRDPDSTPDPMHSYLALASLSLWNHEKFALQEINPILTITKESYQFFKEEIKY
Sequence (Q8J224 1-306): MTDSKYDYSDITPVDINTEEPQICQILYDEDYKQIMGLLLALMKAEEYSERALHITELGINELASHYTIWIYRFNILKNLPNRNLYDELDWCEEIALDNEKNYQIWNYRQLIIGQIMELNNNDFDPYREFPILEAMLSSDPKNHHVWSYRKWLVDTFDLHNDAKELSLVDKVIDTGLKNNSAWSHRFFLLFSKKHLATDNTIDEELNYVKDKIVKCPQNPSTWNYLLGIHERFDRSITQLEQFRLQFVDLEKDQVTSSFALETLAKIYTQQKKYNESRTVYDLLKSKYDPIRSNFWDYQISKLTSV
Experiment: biochemical
pIC50: −log10 of the molar value. Peptide text beside a SMILES is read from it.

Example entries and their recorded answers appear below.
response.value for N[C@@H](CS)C(=O)N1CCC(C(=O)N(CCc2ccccc2)Cc2ccccc2)CC1 [Compound 62] (field: pIC50) = > 6.70

For CC(C)C[C@H](NC(=O)[C@H](Cc1cccc2ccccc12)NC(=O)[C@H](CN)NC(=O)[C@@H](N)CS)C(=O)O [Compound 5b] (HELM PEPTIDE1{C.[NC[C@H](N[*:1])C(=O)[*:2]].[O=C([C@H](Cc1cccc2ccccc12)N[*:1])[*:2]].L}$$$$V2.0) the compound record lists pIC50 as > 8.00

Briefly, pIC50 measured for N[C@@H](CS)C(=O)N1CCC(Cc2ccccc2)(C(=O)NCc2ccccc2)CC1 [Compound 64] : > 7.00

Others:
Lookup result for N[C@@H](CS)C(=O)N1CCC(C(=O)N(Cc2ccccc2)Cc2ccccc2)CC1 [Compound 61] ; measured pIC50: < 6.00

Field pIC50 (entry N[C@@H](CS)C(=O)N1CCC(C(=O)N(Cc2ccccc2)c2ccccc2)CC1 [Compound 60] ) reads < 6.00

Lab book: pIC50 of CC(C)C[C@H](NC(=O)[C@H](Cc1cccc2ccccc12)NC(=O)CNC(=O)[C@@H](N)CS)C(=O)O [Compound 5i] (HELM PEPTIDE1{C.G.[O=C([C@H](Cc1cccc2ccccc12)N[*:1])[*:2]].L}$$$$V2.0) noted as > 6.30

pIC50 reported for this compound CC(C)C[C@H](NC(=O)[C@H](Cc1cccc2ccccc12)NC(=O)[C@H](CCO)NC(=O)[C@@H](N)CS)C(=O)O [Compound 5a] (HELM PEPTIDE1{C.[O=C([C@H](CCO)N[*:1])[*:2]].[O=C([C@H](Cc1cccc2ccccc12)N[*:1])[*:2]].L}$$$$V2.0) : > 6.30
